From: ChEMBL document CHEMBL1201862

System: OVCAR-5
Assay Overview: NCI tumour cell line growth inhibition, 48 h
Calls of active or inactive are those of the source. Rule as the data show it: active = GI50 up to about 1.1 µM and inactive = higher.
Overview of reported GI50 across a group of molecules:

| Molecule | GI50 |
| --- | --- |
| COC(=O)CNC(=O)CCC(C)[C@H]1CCC2C3C(C[C@H](OC(C)=O)[C@@]21C)[C@@]1(C)CCC2(C[C@H]1C[C@H]3OC(C)=O)OOC1(CCCCC1)OO2 (some centres not stated) | 2.6 µM (inactive) |
| Cc1cc(Cl)ccc1NC1=NC(=O)C(CC(=O)Nc2cccc(Cl)c2)S1 (configuration not stated) | 16.1 µM (inactive) |
| COC(=O)c1cc(-c2ccc(-c3ccc(O)cc3)cc2)cc(-c2ccc(-c3ccc(O)cc3)cc2)c1 | 15.7 µM (inactive) |
| c1ccc2[nH]c(-c3nc4ccccc4o3)nc2c1 | > 100 µM (inactive) |
| CC(C)(C)n1c(=O)n(-c2ccccc2)n(C(C)(C)C)c1=O | > 100 µM (inactive) |
| NC1CC(N)c2c(Br)sc(Br)c21 (configuration not stated) | > 100 µM (inactive) |
| O=C1C2=C(C3=NCCc4c[nH]c1c43)c1c(Br)cc(Br)cc1CCN2 | 4.19 µM (inactive) |
| COc1ccc2c(c1)C1(C=N2)CCN(C(C)=O)CC1 | > 100 µM (inactive) |
| CCOC(=O)CSc1nc2ccccc2c(=O)n1N | > 100 µM (inactive) |
| O=C(CC1(O)C(=O)Nc2ccccc21)c1ccc(Cl)c(Cl)c1 (configuration not stated) | > 100 µM (inactive) |
| O=C(O)/C=C\C(=O)Nn1c(Cc2ccc(Cl)cc2)n[nH]c1=O | > 100 µM (inactive) |
| COc1cc(/C=C(\C#N)c2ccccn2)cc(Br)c1O | > 100 µM (inactive) |
| CCOC(=O)c1cc2c3c(c(C(C)=O)c(O)c2[nH]1)N(C(C)=O)CC3 | > 100 µM (inactive) |
| C/N=C1\CC2c3cc(OC)c(OC)cc3CCN2C2=C1C(=O)CC(C)(C)C2 (configuration not stated) | > 100 µM (inactive) |
| COC(=O)C1(Cc2ccc3c(c2)CCC3)Cc2ccccc2C1=O (configuration not stated) | 26.4 µM (inactive) |
| CCOC(=O)c1c[nH]cc1-c1cn(S(=O)(=O)c2ccccc2)cc1C | 52.7 µM (inactive) |
| Nc1ncnc2c1N=C(c1ccccc1)CC(c1ccccc1)N2 (configuration not stated) | > 100 µM (inactive) |
| C=CCNC1=C(C(=O)OCC)C(=O)CO1 | > 100 µM (inactive) |
| CC1(C)CCCCCC(O)C(O)CCC(C)(C)C1=O (configuration not stated) | > 100 µM (inactive) |
| CC1(C)CC(=O)C(=CNc2nc(-c3cccc([N+](=O)[O-])c3)cs2)C(=O)C1 | 46.3 µM (inactive) |
| CC(=O)C(O)N1C(=O)C=CC1=O (configuration not stated) | 17.1 µM (inactive) |
| CN1CCCCC1CCN1c2ccccc2Sc2ccc([S+](C)[O-])cc21 (configuration not stated) | > 100 µM (inactive) |

* * *

Test system: OVCAR-8
Assay Overview: NCI tumour cell line growth inhibition, 48 h
Calls of active or inactive are those of the source. Cut-off read from the data, not from the text of the source: active = GI50 up to about 1.1 µM and inactive = higher.
Attribute Measured: GI50

| Molecule | Attribute Measured | Value Measured |
| --- | --- | --- |
| COc1ccc(C2N(c3ccc(C)c(N=C=O)c3)C(=O)N3C(c4ccc(OC)cc4)N(c4ccc(C)c(N=C=O)c4)C(=O)N23)cc1 (centres undefined) | GI50 | > 100 µM (inactive) |
| O=C(NC12CC3CC(CC(C3)C1)C2)C(=O)c1c[nH]c2ccc([N+](=O)[O-])cc12 | GI50 | 19 µM (inactive) |
| CCOC(=O)/C(=C\c1ccc(C#N)cc1)C(C)=O | GI50 | 36.6 µM (inactive) |
| COc1cc(/C=N\c2nc(-c3ccc(NS(=O)(=O)c4ccc(Cl)c(OC)c4)cc3)cs2)ccc1O | GI50 | 50.1 µM (inactive) |
| c1ccc(-c2cc(-c3cccs3)c(-c3cccs3)o2)cc1 | GI50 | > 100 µM (inactive) |
| Cn1ccnc1C(O)(c1nccn1C)c1nccn1C | GI50 | > 100 µM (inactive) |
| CCOc1ccccc1/N=C(/NC(=O)CC)SC | GI50 | 57 µM (inactive) |
| Cc1cc(NS(=O)(=O)c2ccc(NC(=O)c3ccc(Cl)c4c(Nc5ccc(S(N)(=O)=O)cc5)c5ccccc5nc34)cc2)no1 | GI50 | 17.9 µM (inactive) |
| O=[N+]([O-])c1cc(-c2nc(-c3ccccc3)c(-c3ccccc3)[nH]2)c(O)c([N+](=O)[O-])c1 | GI50 | 34 µM (inactive) |
| O=C(CCCN1CCC(Nc2ccc(F)cc2)(c2nnnn2C2CCCCC2)CC1)c1ccc(F)cc1 | GI50 | 23.6 µM (inactive) |
| O=C1Nc2ccccc2C(=O)/C1=C/NC(=S)NCc1ccccc1 | GI50 | > 100 µM (inactive) |
| O=C(NCCO)c1ccc(Cl)cc1 | GI50 | > 100 µM (inactive) |
| O=S(=O)(c1ccccc1)n1c(C(O)c2ccccc2)cc2ccccc21 (centres undefined) | GI50 | 16.9 µM (inactive) |
| Clc1cc(N/N=C(/c2ccccc2)c2ncccn2)ncn1 | GI50 | 16.5 µM (inactive) |
| CC(=O)Nc1ccccc1-c1cnc2ccccc2n1 | GI50 | > 100 µM (inactive) |
| Cc1c(C(=O)CSc2nc3ccccc3[nH]2)c(=O)n(-c2ccccc2)n1C | GI50 | > 100 µM (inactive) |
| CCOC(=O)C1(Cc2ccccc2)CCCCCN1 (centres undefined) | GI50 | > 100 µM (inactive) |
| COc1ccc(/C=C2\C(=O)N(C(=O)c3ccc(NC(C)=O)cc3)N=C2C)cc1OC | GI50 | > 100 µM (inactive) |
| CC(=O)OCC(C)C1=C(OC(C)=O)C(=O)C2(C)C/C=C(/C)CC/C=C(\C)CCC(OC(C)=O)C(C)CCC12 (centres undefined) | GI50 | 19.1 µM (inactive) |
| CCOC(=O)c1ccc(N(C)Cc2cnc3nc(N)nc(N)c3n2)cc1 | GI50 | 7.64 µM (inactive) |
| COc1ccc2[nH]c3c(O)c(-c4c(C)cc5c([nH]c6ccc(OC)cc65)c4O)c(C)cc3c2c1 | GI50 | 4.5 µM (inactive) |
| CC(c1ccccc1)n1c2ccccc2c2c(N)ncnc21 (centres undefined) | GI50 | 17.1 µM (inactive) |
| COc1cccc2c1C(=O)c1c(O)c3c(c(O)c1C2=O)C[C@@](O)(C(C)O)C[C@@H]3OC1CC(N)C(O)C(C)O1 (some centres undefined) | GI50 | 1.14 µM (inactive) |
| NCCC1(N)CCNCC1 | GI50 | > 100 µM (inactive) |
| COC(=O)Nc1nc2cc(Br)ccc2[nH]1 | GI50 | 32.6 µM (inactive) |
| CC1=C(c2cc(C(=O)Nc3cc(C)ccc3C)nc(N)n2)Sc2ccccc2N1 | GI50 | > 100 µM (inactive) |
| O=C1CCCCC[C@]12SC[C@H]1CON=C12 | GI50 | 65.8 µM (inactive) |
| COc1ccc(C2C(C)C(=O)C(C)C(c3ccc(OC)cc3)N2N=O)cc1 (centres undefined) | GI50 | 340 µM (inactive) |
| S=c1sc2nc(Cl)nc(Cl)c2s1 | GI50 | 9.33 µM (inactive) |

* * *

Test system: SK-OV-3
Assay Overview: NCI tumour cell line growth inhibition, 48 h
Activity calls are given as the source filed them. Rule as the data show it: active = GI50 up to about 1.1 µM and inactive = higher.

| Molecule | GI50 |
| --- | --- |
| C[S+]([O-])c1ncc2c(n1)-c1ccccc1OC2 (stereo not given) | > 100 µM (inactive) |
| COc1ccc(C2C(C)C(=O)C(C)C(c3ccc(OC)cc3)N2N=O)cc1 (stereo not given) | 257 µM (inactive) |
| CNc1ccc(Cl)cc1S(=O)(=O)c1ccccc1[N+](=O)[O-] | > 100 µM (inactive) |
| O=C1C(NS(=O)(=O)c2ccccc2)=C(n2cnc3ccccc32)C(=O)c2ccccc21 | > 100 µM (inactive) |
| O=C(/C=C1\Sc2ccccc2N=C1CC(=O)c1ccccc1)c1ccccc1 | 9.82 µM (inactive) |

* * *

Test system: OVCAR-3
Assay Overview: NCI tumour cell line growth inhibition, 48 h
Calls of active or inactive are those of the source. No stated cut-off is given here; in the data, active = GI50 up to about 1.1 µM and inactive = higher.
Overview of reported GI50 across a group of molecules:
Attribute Measured: GI50

| Molecule | Value Measured |
| --- | --- |
| CCCCC(C(=O)CCC(=O)Nc1ccc(Cl)c(Cl)c1)C(=O)C(C)C (stereo not given) | > 100 µM (inactive) |
| O=c1/c(=C/c2ccccc2F)sc2nc3ccccc3n12 | > 100 µM (inactive) |
| O=C1C(NS(=O)(=O)c2ccccc2)=C(n2cnc3ccccc32)C(=O)c2ccccc21 | > 100 µM (inactive) |
| CCc1cc(Cc2ccc(C)c(NC(=O)C(=O)C3C(=O)NC(=O)NC3=O)c2CC)cc(C)c1NC(=O)C(=O)C1C(=O)NC(=O)NC1=O | > 100 µM (inactive) |
| CCOC(=O)C1S/C(=N/c2ccc(Cl)cc2C)N=C1C (stereo not given) | 20.8 µM (inactive) |
